These data points were gathered from patent US8513277B2.

system_name: H+/K+-ATPase (hog gastric vesicle) (Sus scrofa)
Construct: used as an enzyme source of the in vitro enzyme reaction assay of proton pump
experiment_summary: Inhibitory effects on proton pump (H+/K+-ATPase) activity
assay_conditions: K+ stimulated H+/K+-ATPase activity, hog gastric vesicles, Pi measured at 620 nm
Where a name gives a salt, the structure may show the parent alone.
reported_property: IC50 (µM)

compound: Cc1c(Cc2ccccc2)c2c(N3CCc4ccccc4C3)nccc2n1C.Cl [Example 56, hydrochloride]
system_name: H+/K+-ATPase (hog gastric vesicle) (Sus scrofa)
unit_annotation: µM
IC50: 0.23

(A) Cc1[nH]c2ccnc(NCc3ccc(F)cc3)c2c1Cc1ccccc1 [Example 71, hydrochloride]
(B) Cc1c(Cc2ccccc2)c2c(N3CCc4ccccc4C3)nccc2n1CC1OCCO1 [Example 65, hydrochloride]
(C) Cc1[nH]c2ccnc(N3CCc4ccccc4C3)c2c1Cc1ccccc1 [Example 70, sodium]
(D) CCn1c(C)c(C)c2c(N3CCc4ccccc4C3)nccc21 [Example 7, hydrochloride]
Challenge: Rank items: key IC50, increasing. Quick reminder: the answer is the labels in the order asked.
Response given: C, A, D, B
(C: 0.22 µM, A: 0.53 µM, D: 1.03 µM, B: 2.12 µM)

###

system_name: H+/K+-ATPase (hog gastric vesicle) (Sus scrofa, UniProt P19156)
Construct: used as an enzyme source of the in vitro enzyme reaction assay of proton pump
Sequence (P19156 2-1034 limits assumed): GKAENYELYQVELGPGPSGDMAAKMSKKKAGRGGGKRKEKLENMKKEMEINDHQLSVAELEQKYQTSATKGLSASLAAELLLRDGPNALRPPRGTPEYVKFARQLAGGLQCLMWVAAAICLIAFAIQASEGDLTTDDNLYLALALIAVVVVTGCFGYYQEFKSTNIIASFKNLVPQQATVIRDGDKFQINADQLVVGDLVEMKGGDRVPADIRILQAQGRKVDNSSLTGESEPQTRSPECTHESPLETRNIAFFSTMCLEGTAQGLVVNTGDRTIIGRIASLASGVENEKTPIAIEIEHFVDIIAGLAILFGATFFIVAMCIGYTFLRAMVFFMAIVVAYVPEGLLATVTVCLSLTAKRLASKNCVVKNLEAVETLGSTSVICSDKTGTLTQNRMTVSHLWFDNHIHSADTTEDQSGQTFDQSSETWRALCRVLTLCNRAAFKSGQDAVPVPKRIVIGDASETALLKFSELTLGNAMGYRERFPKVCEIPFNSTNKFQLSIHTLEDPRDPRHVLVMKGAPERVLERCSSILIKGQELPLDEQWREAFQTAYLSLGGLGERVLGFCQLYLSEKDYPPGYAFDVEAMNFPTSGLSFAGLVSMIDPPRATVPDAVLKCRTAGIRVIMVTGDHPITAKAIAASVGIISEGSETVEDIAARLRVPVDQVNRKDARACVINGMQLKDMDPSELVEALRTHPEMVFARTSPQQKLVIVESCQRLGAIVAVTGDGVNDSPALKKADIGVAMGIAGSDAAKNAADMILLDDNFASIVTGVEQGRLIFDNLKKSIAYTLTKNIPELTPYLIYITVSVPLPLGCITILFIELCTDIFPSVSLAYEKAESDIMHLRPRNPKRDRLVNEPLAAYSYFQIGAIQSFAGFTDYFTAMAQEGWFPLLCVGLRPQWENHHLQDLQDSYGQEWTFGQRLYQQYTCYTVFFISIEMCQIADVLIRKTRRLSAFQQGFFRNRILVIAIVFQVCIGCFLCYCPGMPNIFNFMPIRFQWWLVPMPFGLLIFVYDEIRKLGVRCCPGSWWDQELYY
Sequence (P18434 whole entry partner): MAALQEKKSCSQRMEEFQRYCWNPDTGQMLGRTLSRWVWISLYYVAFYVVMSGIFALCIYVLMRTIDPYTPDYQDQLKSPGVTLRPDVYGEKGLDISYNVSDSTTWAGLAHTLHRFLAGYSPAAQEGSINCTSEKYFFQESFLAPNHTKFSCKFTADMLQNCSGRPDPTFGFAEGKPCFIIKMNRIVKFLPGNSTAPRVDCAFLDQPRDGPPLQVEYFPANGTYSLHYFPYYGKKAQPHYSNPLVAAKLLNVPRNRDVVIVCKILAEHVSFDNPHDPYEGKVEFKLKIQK
experiment_summary: Inhibitory effects on proton pump (H+/K+-ATPase) activity
assay_conditions: K+ stimulated H+/K+-ATPase activity, hog gastric vesicles, Pi measured at 620 nm
Counter-ions that a name gives are not always drawn.
reported_property: IC50 (nM)

molecule: Cc1[nH]c2ccnc(N3CCc4ccccc4C3)c2c1C
unit_annotation: nM
IC50: 470

(A) Cc1c(C)n(C)c2ccnc(N3CCc4ccccc4C3)c12 [Example 6, hydrochloride]
(B) COCCn1c(C)c(C)c2c(N3CCc4ccccc4C3)nccc21 [Example 3, hydrochloride]
(C) Cc1[nH]c2ccnc(N3CCc4ccccc4C3)c2c1Cc1ccccc1.Cl [Example 55, hydrochloride]
(D) Cc1c(Cc2ccccc2)c2c(N3CCc4ccccc4C3)nccc2n1C1CC1 [Example 61, hydrochloride]
Challenge: Form: Sort by [IC50] Order [ ascending ] Your answer should be the labels, listed in the requested order.
Response given: C, D, A, B

###

system_name: H+/K+-ATPase (hog gastric vesicle) (Sus scrofa, UniProt P19156)
Construct: used as an enzyme source of the in vitro enzyme reaction assay of proton pump
experiment_summary: Inhibitory effects on proton pump (H+/K+-ATPase) activity
assay_conditions: K+ stimulated H+/K+-ATPase activity, hog gastric vesicles, Pi measured at 620 nm
Procedure: The hog fundic regions containing parietal and peptic cells were scraped with slide-glass. The collected cells were suspended in 10 ml of 0.25M sucrose buffer and homogenized using a tight-fitting Teflon-glass homogenizer. The homogenate was centrifuged for 35 min at 8,000 rpm and the pellet was discarded. The supernatant was further centrifuged for 75 min at 25,000 rpm. […] The inhibitory effects of the compounds of the present invention against proton pump activity were evaluated in 96-well plate. […]
pIC50: −log10 of the molar value. Where a name gives a salt, the structure may show the parent alone.
reported_property: pIC50

Solved cases (2 shown):
molecule: COCCn1c(C)c(Cc2ccccc2)c2c(N3CCc4ccccc4C3)nccc21 [Example 63, hydrochloride]
system_name: H+/K+-ATPase (hog gastric vesicle) (Sus scrofa, UniProt P19156)
pIC50: > 5.40

molecule: Cc1c(Cc2ccccc2)c2c(N3CCc4ccccc4C3)nccc2n1Cc1ccccc1 [Example 66, hydrochloride]
system_name: H+/K+-ATPase (hog gastric vesicle) (Sus scrofa, UniProt P19156)
pIC50: > 5.40

Moving on to another molecule below.
Challenge: Query the reported pIC50 for H+/K+-ATPase (hog gastric vesicle) (Sus scrofa, UniProt P19156); item: Cc1c(C)n(CCO)c2ccnc(N3CCc4ccccc4C3)c12 [Example 20, hydrochloride]
Response given: > 5.40
